Tested on: Nucleic Acid
Experiment: Binding affinity to 5'-GCGATATATGCG-3' DNA sequence in PBS buffer of pH 7.4 assessed as change in melting temperature by UV-VIS spectrophotometric analysis
Type: nucleic-acid assay
METRIC: ΔTm

Please review the entries below; each comes with its answer.
- Cn1cc(NC(=O)c2cc(NC(=O)c3ccc(/N=N/c4cnc5ccccc5c4)cc3)cn2C)cc1C(=O)NCCN1CCOCC1: 17 °C
- COc1cccc(C(=O)Nc2ccc(C(=O)Nc3cc(C(=O)Nc4cc(C(=O)NCCN5CCOCC5)n(C)c4)n(C)c3)cc2)c1: 10 °C

Please turn your attention to the following entry.
query: Please give the measured ΔTm for this molecule: Cn1cc(NC(=O)c2cc(NC(=O)c3ccc(/C=C/c4cnc5ccccc5c4)cc3)cn2C)cc1C(=O)NCCN1CCOCC1
result: 18 °C
